- Assay summary: Oral bioavailability in Sprague-Dawley rat at 6 mg/kg
- Assay type: ADME, organism-based
- Assay conditions: in vivo
Assignment: determine reported bioavailability for the given compounds.
// units = %; emit number, no label

Exercise: What does the record list as bioavailability for CCOC[C@@H](CC(C)C)NC(=O)[C@@H]1CNC[C@H](C(=O)N(c2cc(OCCCOC)c(C(C)C)cn2)C2CC2)C1.Cl ?
Solution: 19

Exercise: Entry CCOC[C@@H](CC(C)C)NC(=O)[C@@H]1CNC[C@H](C(=O)N(c2cc(OCC)c(CC)cn2)C2CC2)[C@@H]1O.O=C(O)/C=C/C(=O)O : reported bioavailability = ?
Solution: 60

Exercise: # input compound: CCOC[C@@H](CC(C)C)NC(=O)[C@@H]1CNC[C@H](C(=O)N(c2ccc(C(C)C)cn2)C2CC2)C1.O=C(O)/C=C/C(=O)O ; wanted: its bioavailability
Solution: 45

Exercise: Reported bioavailability for CCOC[C@@H](CC(C)C)NC(=O)[C@@H]1CNC[C@H](C(=O)N(c2cc(OC)c(C(C)C)cn2)C2CC2)[C@@H]1O : what is it?
Solution: 61

Exercise: Entry under review: CCOC[C@@H](CC(C)C)NC(=O)[C@@H]1CNC[C@H](C(=O)N(c2ccc(C(C)C)cn2)C2CC2)[C@@H]1O.O=C(O)CCC(=O)O . Reported bioavailability?
Solution: 61

Exercise: // bioavailability lookup, key: CCOC[C@@H](CC(C)C)NC(=O)[C@@H]1CNC[C@H](C(=O)N(c2cc(OC)c(C(C)C)cn2)C2CC2)C1.O=C(O)C(O)C(O)C(=O)O
Solution: 39

Exercise: Would you mind telling me what bioavailability value was observed for CCOC[C@@H](CC(C)C)NC(=O)[C@@H]1CNC[C@H](C(=O)N(c2cc(OCC)c(CC)cn2)C2CC2)C1.O=C(O)C(O)C(O)C(=O)O ?
Solution: 44

Values from ChEMBL document CHEMBL3352242
